# TEST_SYSTEM: Albumin (Bos taurus) (UniProt P02769)
# Sequence (P02769 whole entry, looked up): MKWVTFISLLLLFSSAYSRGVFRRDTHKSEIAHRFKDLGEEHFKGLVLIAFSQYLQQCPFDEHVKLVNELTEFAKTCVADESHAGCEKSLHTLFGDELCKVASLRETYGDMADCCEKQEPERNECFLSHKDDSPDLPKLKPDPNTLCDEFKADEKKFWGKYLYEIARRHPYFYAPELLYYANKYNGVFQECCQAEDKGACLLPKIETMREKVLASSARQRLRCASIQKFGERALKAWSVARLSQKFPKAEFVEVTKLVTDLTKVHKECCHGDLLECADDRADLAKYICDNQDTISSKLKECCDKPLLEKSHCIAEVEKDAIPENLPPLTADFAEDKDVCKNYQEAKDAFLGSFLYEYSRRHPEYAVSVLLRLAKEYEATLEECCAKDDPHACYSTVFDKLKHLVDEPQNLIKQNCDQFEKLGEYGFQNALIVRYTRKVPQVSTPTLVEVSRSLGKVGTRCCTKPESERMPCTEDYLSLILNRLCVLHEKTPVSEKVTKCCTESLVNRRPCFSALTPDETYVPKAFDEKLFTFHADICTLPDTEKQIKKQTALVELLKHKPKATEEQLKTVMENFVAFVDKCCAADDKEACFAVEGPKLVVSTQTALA
# MEASUREMENT_PROTOCOL: bovine serum albumin binders on microarray, profiling panel, artefact control for SMM control protein annotation, biochemical, small-molecule microarray, Alexa647 label, 635/667 nm fluorescence (AID 1118);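 also: score merges 667 nm emission intensity and signal-to-noise per printed compound spot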
# TEST_PARAMETERS: BSA-A647 binding, fluorescence 635 nm, higher = more signal
In this section we review reported composite z-score values for a set of molecules.
Lab note: jot the number down without any unit.

Reported composite z-score for C=C(C(=O)CC[C@H](OC(C)=O)c1cccc(OCCO)c1)C(C)C was -0.757

Reported composite z-score for CCOC(=O)C1=CC[C@@H](c2cc(Cl)ccc2Cl)N(S(=O)(=O)c2ccc(C)cc2)[C@H]1c1ccc(OC)cc1 was 0.596

Reported composite z-score for CO[C@H]1O[C@H](CO)[C@@H](OC(=O)c2ccc(Br)cc2)[C@@H]2OC(=O)[C@@H](Cc3ccc4ccccc4c3)C/C=C/C[C@H](Cc3ccc4ccccc4c3)C(=O)O[C@@H]12 was 0.934

---

# TEST_SYSTEM: Carbonic anhydrase 2 (Homo sapiens)
# MEASUREMENT_PROTOCOL: CAII small-molecule binders, profiling panel, biochemical, small-molecule microarray, Alexa647-labelled CAII (AID 1122)
# TEST_PARAMETERS: CAII-A647 binding fluorescence, higher = more signal
Reported composite z-score maps to class as: bucket A = under 0.01, bucket B = from 0.01 up to 0.5, bucket C = 0.5 and over

COMPOUND | CLASS_ASSIGNMENT
COc1ccc(CCNC(=O)[C@@]2(Sc3ccc(C)cc3)CC(=O)N(Cc3cc(C(F)(F)F)cc(C(F)(F)F)c3)[C@@H]2c2ccc(CO)cc2I)cc1 | bucket C

[ask] Band for the recorded composite z-score of C=CCNC(=O)[C@@H]1[C@H]2C(=O)O[C@H](c3ccccc3)[C@H](c3ccccc3)N2[C@H](c2ccccc2OCCO)[C@@]12C(=O)N(C(=O)OCCOC)c1ccc(C#CC3=CCCCC3)cc12 ?
[reply] bucket B

[ask] Band for the recorded composite z-score of CC(CO)N1C(=O)[C@@H]2C3C(=O)OCCC/C=C\[C@H]3OC23C=CCN(Cn2nnc4ccccc42)C(=O)[C@@H]13 (some centres undefined) ?
[reply] bucket C

[ask] Band for the recorded composite z-score of NC(=O)N1C(=O)C2C(C1=O)C1C=C(c3ccc(CO)cc3)C2C(C2CC2)N1Cc1sc2ccccc2c1Cl (centres undefined) ?
[reply] bucket B

[ask] Band for the recorded composite z-score of CCC[C@@H]1C[C@@]1(CCC)[C@@H](NP(=O)(c1ccccc1)c1ccccc1)c1ccc(Cl)cc1 ?
[reply] bucket A

[ask] Band for the recorded composite z-score of COc1ccc([Si](C)(C)[C@H]2[C@H](CCn3cc([C@H](O)c4ccccc4)nn3)O[C@@]3(C(=O)N(Cc4ccc(N5CCOC5=O)cc4)c4ccccc43)[C@@H]2C)cc1 ?
[reply] bucket A

---

# TEST_SYSTEM: Calmodulin-1 (Homo sapiens)
# MEASUREMENT_PROTOCOL: calcium-bound CALM1 binders on microarrays, profiling panel, artefact control for SMM control-protein annotation, biochemical, small-molecule microarray, Cy5-labelled CALM1, plus calcium (AID 1112);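 also: score merges spot fluorescence with signal to noise from triplicate slides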
# TEST_PARAMETERS: Cy5-CALM1 binding fluorescence, higher = more signal
In this section we review reported composite z-score values for a set of compounds.
Lab note: jot the number down without any unit.

As a guide, the following entries are already answered.
COMPOUND | composite z-score
C=CCN1Cc2ccccc2C[C@@]2(N=C(c3ccc(OCCCO)cc3)O[C@H]2c2ccccc2)C1=O | -0.398
CC(CO)N1C(=O)[C@@H]2C3C(=O)OCCC/C=C\[C@H]3OC23C=CCN(Cn2nnc4ccccc42)C(=O)[C@@H]13 (some centres undefined) | -0.205
COc1ccc([Si](C)(C)[C@H]2[C@H](CCn3cc([C@H](O)c4ccccc4)nn3)O[C@@]3(C(=O)N(Cc4ccc(N5CCOC5=O)cc4)c4ccccc43)[C@@H]2C)cc1 | 0.481

Let us examine a further case.
composite z-score for Calmodulin-1 (Homo sapiens) with input CC(C)C(=C=CC[C@@H](O)c1ccccc1OCCO)C[C@@H](O)COCc1ccccc1 equals 0.652

---

# MEASUREMENT_PROTOCOL: osmotic lysis modulators in infected erythrocytes, primary screen, PSAC antagonist project, cell-based, P. falciparum Indochina, OD700, 3 h (AID 1156)
# TEST_PARAMETERS: higher = more signal, called active from +8 up or from −8 down
Classification field: enter Met for z-score values not below -0.1, Not met for values below it.

COMPOUND | CLASS_ASSIGNMENT
C=C(CCCC)C(=O)CC[C@@H](OC(=O)c1cccnc1)c1ccccc1OCCO | Met
O=c1cccc(-c2ccc(C(F)(F)F)cc2)o1 | Not met
COCCOC(=O)N1C(=O)[C@@]2(c3cc(C#CC4(O)CCCCCC4)ccc31)[C@H](c1ccccc1OCCO)N1[C@H](c3ccccc3)[C@H](c3ccccc3)OC(=O)[C@H]1[C@@H]2C(N)=O | Not met
CC(C)CCC[C@@H](C)[C@H]1CC[C@@]2(C)C3=C(CC[C@]12C)[C@@]1(C)CC[C@H](OC(=O)c2ccc(Br)cc2)C(C)(C)C1CC3 (some centres not stated) | Not met
CCOC(=O)C[C@H]1[C@H](OC(=O)Cc2ccc3c(c2)OCO3)[C@@H](NC(=O)C2CCCCC2)c2cc(OCCCO)ccc2N1C(=O)c1ccc2ccccc2n1 | Not met

[ask] Form field: z-score at least -0.1? Entry: O=C(NC1CC1)[C@@H]1c2ccccc2C(=O)N(Cc2ccccc2)[C@H]1c1ccc(CO)cc1
[reply] Met

[ask] Form field: z-score at least -0.1? Entry: O=C(CS)NCCCCCCNC(=O)[C@@H]1C[C@@H]2C(=O)N3CCC[C@H]3C(=O)N2[C@@H]1c1cccc(OCCO)c1
[reply] Met

---

In this section we review reported z-score values for a set of compounds.
# MEASUREMENT_PROTOCOL: basal S. cerevisiae growth modulation, no modifier, primary screen, OD600, strain BY4716, 24 h, basal condition (AID 1173)
# TEST_PARAMETERS: OD600, 24 h, higher = more signal, called active from +8 up or from −8 down
Lab note: jot the number down without any unit.

As a guide, the following entries are already answered.
COMPOUND | OBSERVABLE | NUMBER
CC(=O)n1cc(C(O)C2C=CC3C(=O)N(Cc4ccccc4)C(=O)C3N2n2cnnc2)c2ccccc21 (configuration not stated) | z-score | 0.319
COc1ccc([Si](C)(C)[C@@H]2[C@@H](CCO)O[C@]3(C(=O)N(Cc4cccc(N5C(=O)c6ccccc6Oc6ccccc65)c4)c4ccccc43)[C@H]2C)cc1 | z-score | 1.02
COC(=O)[C@]1(CCS(=O)(=O)c2ccccc2)N=C(c2ccc(OCCCO)cc2)O[C@@H]1c1ccccc1CN=[N+]=[N-] | z-score | 1.69

Reported z-score for COc1ccc([Si](C)(C)[C@H]2[C@H](CCO)O[C@@]3(C(=O)N(Cc4cccc(N5CCCCC5=O)c4)c4ccccc43)[C@@H]2C)cc1 was -0.732

Reported z-score for C=CC[C@H](OC(=O)Nc1ccc(OC)cc1)c1ccc(O)c2ccccc12 was -16.7

Reported z-score for COC(=O)[C@@]1(Cc2ccccc2)[C@H]2c3cc(C(=O)N4CCCC4)n(Cc4ccsc4Br)c3C[C@H]2CN1C(=O)c1ccccc1 was 0.666

Reported z-score for COc1cc(CO)cc(I)c1O[C@H]1C=C(C(=O)NCCO)C[C@@H](N(Cc2ccc(F)cc2)C(=O)C2CCCO2)[C@@H]1O (some centres not stated) was -1.96

Reported z-score for COCCOC(=O)N1C(=O)[C@@]2(c3cc(C#Cc4ccc(OC)cc4)ccc31)[C@H](C(=O)N1CCCCCCC1)[C@H]1C(=O)O[C@H](c3ccccc3)[C@H](c3ccccc3)N1[C@@H]2c1ccc(O)cc1 was -0.404

Reported z-score for CO[C@H]1O[C@H](CO)[C@@H](OC(=O)Nc2ccc(C(F)(F)F)cc2)[C@H](OC(=O)Nc2ccc3c(c2)OCO3)[C@H]1OC(=O)Nc1ccc2c(c1)OCO2 was 0.634

Reported z-score for CO[C@H]1O[C@H](CO)[C@@H](OC(=O)c2ccc(Br)cc2)[C@@H]2OC(=O)[C@@H](Cc3ccc4ccccc4c3)C/C=C/C[C@H](Cc3ccc4ccccc4c3)C(=O)O[C@@H]12 was -1.23

Reported z-score for C=CCOC(=O)[C@@H]1[C@H]2C(=O)O[C@H](c3ccccc3)[C@H](c3ccccc3)N2[C@H](c2ccc(OCCOC(=O)[C@H]3C[C@H]4C(=O)N[C@@H](CCCC[N+](C)(C)C)C(=O)N4[C@H]3c3ccc(O)cc3)cc2)[C@@]12C(=O)Nc1ccc(I)cc12 was 1.47

Reported z-score for O=C1O[C@@H](c2ccccc2)[C@@H](c2ccccc2)N2[C@@H](c3ccccc3OCCO)[C@]3(C(=O)Nc4ccccc43)[C@@H](C(=O)NC[C@H](O)c3ccccc3)[C@H]12 was 0.587
